Data provenance: PubChem BioAssay AID1963964

Tested on: 997726-040-R-J2-PDC tumor spheroids, viability;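 further: spheroids exposed to compounds for seven days before readout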
Assay Overview: Anticancer human tumor 997726-040-R-J2-PDC patient-derived squamous cell lung carcinoma cell line growth inhibition [PI3K]
Details: curve of first compound; second compound 0.00316 µM; spheroids with HUVEC and MSC

Molecule	IC50
CC(C)n1nc(-c2ccc3oc(N)nc3c2)c2c(N)ncnc21 + COc1c(OCCCN2CCOCC2)ccc2c3n(c(=NC(=O)c4cnc(N)nc4)nc12)CCN3	18.2 nM
Cn1nccc1Nc1nccc(-c2ccn(C(CO)c3ccc(Cl)c(F)c3)c(=O)c2)n1 (stereo not drawn) + CC(Nc1ccc2c(c1)OCCn1cc(N3C(=O)OCC3C(F)F)nc1-2)C(N)=O	> 10000 nM
CC(=O)c1c(C)c2cnc(Nc3ccc(N4CCNCC4)cn3)nc2n(C2CCCC2)c1=O + COc1c(OCCCN2CCOCC2)ccc2c3n(c(=NC(=O)c4cnc(N)nc4)nc12)CCN3	> 100 nM
